B1: library; a variant is named by its letters at N, in order (parent)
chain: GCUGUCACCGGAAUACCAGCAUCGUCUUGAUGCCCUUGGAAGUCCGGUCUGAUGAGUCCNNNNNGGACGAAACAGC

Variants of: B1
Experiment: FACS-Seq fitted mean relative fluorescence mCherry/BFP with ligand (log10 relative fluorescence); ligand concentration (+) FACS-Seq: 1 mM; higher = higher reporter protein expression
Details: HEK293T, ligand present: yes
Measured FACS-Seq fitted mean (log10), listed per entry for reference.
Give your answer as a number; write no unit.

Examples with answers:
AACAG	0.677
CGAUA	0.491
ACUCU	-0.125
GAGAA	0.767

Challenge: Dear colleague, I am looking for the recorded FACS-Seq fitted mean (log10) of the following variant: `UGAUU`
Response given: 0.437
